Task for the reader: assign each of the following molecules its reported pIC50.
# system: human TLR7 (Homo sapiens (Human))
# Sequence (Q9NYK1 27-1049): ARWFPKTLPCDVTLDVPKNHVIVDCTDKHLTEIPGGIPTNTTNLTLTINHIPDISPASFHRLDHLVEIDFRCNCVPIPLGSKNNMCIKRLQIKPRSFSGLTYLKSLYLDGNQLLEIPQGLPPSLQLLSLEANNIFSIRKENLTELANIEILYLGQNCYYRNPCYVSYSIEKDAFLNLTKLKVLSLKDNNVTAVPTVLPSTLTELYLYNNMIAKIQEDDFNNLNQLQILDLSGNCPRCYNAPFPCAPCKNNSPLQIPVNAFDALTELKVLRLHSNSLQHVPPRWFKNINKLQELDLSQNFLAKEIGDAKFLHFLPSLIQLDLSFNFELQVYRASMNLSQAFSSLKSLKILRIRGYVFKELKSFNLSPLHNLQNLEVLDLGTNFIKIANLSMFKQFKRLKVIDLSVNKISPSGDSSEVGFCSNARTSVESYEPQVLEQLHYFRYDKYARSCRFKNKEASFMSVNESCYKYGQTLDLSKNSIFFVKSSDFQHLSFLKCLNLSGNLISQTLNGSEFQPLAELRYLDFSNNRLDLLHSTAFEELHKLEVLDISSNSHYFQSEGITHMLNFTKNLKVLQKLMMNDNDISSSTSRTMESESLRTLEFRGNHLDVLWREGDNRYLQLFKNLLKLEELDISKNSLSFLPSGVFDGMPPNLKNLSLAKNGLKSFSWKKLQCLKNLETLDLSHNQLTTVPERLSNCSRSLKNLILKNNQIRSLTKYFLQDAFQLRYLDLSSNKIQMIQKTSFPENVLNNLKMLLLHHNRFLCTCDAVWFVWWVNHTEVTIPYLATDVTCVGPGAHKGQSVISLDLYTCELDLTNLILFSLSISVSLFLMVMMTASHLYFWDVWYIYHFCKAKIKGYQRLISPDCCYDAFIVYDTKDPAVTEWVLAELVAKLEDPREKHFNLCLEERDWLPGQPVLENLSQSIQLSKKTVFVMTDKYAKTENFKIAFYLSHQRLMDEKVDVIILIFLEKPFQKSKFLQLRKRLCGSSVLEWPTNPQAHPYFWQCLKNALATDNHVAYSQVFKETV
# assayNotes: TLR7 inhibition reporter assay (HEK-Blue SEAP)
# Type: cell-based
# testContext: HEK-Blue cells overexpressing human TLR7, SEAP reporter, gardiquimod 7.5 μM
Give bare numbers, as −log10 of the molar value.

q: Recorded pIC50 of Cc1cc(-c2[nH]c3ccc(C4CN(C(C)C)CCO4)nc3c2C(C)C)cn(C)c1=O (stereo not drawn) [Example 678] , please.
a: 7.44

q: So what does the record say about pIC50 for Cc1c(-c2[nH]c3ccc(C4CCC(NCCO)CC4)nc3c2C(C)C)cn2ncnc2c1C (stereo not drawn) [Example 409] ?
a: 8.77

q: I have this molecule here, COc1cc(-c2[nH]c3ccc(OC4CCN(CC(C)(C)O)CC4)nc3c2C(C)C)cn2ncnc12 [Example 613] , and I need its recorded pIC50.
a: 8.70

Below are some molecules; for each one, tell me its pIC50.
1. Cc1cc2[nH]c(-c3cc(C)c4ncnn4c3)c(C(C)C)c2nc1C1CCN(CC(=O)N(C)C)CC1 [Example 581]
2. Cc1c(-c2[nH]c3ccc(C4CCC(N5CC(C#N)C5)CC4)nc3c2C(C)C)cn2ncnc2c1C (stereo not drawn) [Example 434]
3. Cc1c(-c2[nH]c3ccc(C4CCC(N(CCC#N)C5CC5)CC4)nc3c2C(C)C)cn2ncnc2c1C (stereo not drawn) [Example 433]

a:
[9.52, 8.82, 7.38]

Need pIC50 for each of these molecules.
1. CCN(CC(=O)N(C)C)C1CCC(c2ccc3[nH]c(-c4cn5ncnc5c(C)c4C)c(C(C)C)c3n2)CC1 (stereo not drawn) [Example 467]
2. Cc1c(-c2[nH]c3ccc(C4CCN(CC(C)(C)O)CC4)nc3c2C(C)C)cn(C)c(=O)c1C [Example 546]
3. COCCNC1CCC(c2ccc3[nH]c(-c4cn5ncnc5c(C)c4C)c(C(C)C)c3n2)CC1 (stereo not drawn) [Example 431]
4. Cc1c(-c2[nH]c3ccc(C4CCC(N5CC(S(C)(=O)=O)C5)CC4)nc3c2C(C)C)cn2ncnc2c1C (stereo not drawn) [Example 448]
5. Cc1cnc(CN(C)C2CCC(c3ccc4[nH]c(-c5cn6ncnc6c(C)c5C)c(C(C)C)c4n3)CC2)cn1 (stereo not drawn) [Example 415]

a:
[8.92, 8.02, 7.80, 8.12, 8.60]

Dear reader, for each entry below, please note its pIC50.
1. Cc1c(-c2[nH]c3ccc(C4CC(N(C)C(=O)CN(C)C)C4)nc3c2C(C)C)cn2ncnc2c1C (stereo not drawn) [Example 615]
2. Cc1c(-c2[nH]c3ccc(C4CCC(NCC(=O)NC(C)(C)C)CC4)nc3c2C(C)C)cn2ncnc2c1C (stereo not drawn) [Example 485]
3. Cc1c(-c2[nH]c3ccc(N4CC5(CN(C)C5)C4)nc3c2C(C)C)cn2ncnc2c1C [Example 741]
4. CC(C)c1c(-c2cn(C)c3ncccc23)[nH]c2ccc(CCC3CNC3)nc12 [Example 690]
5. COCCN(C)C(=O)CNC1CCC(c2ccc3[nH]c(-c4cn5ncnc5c(C)c4C)c(C(C)C)c3n2)CC1 (stereo not drawn) [Example 488]
6. Cc1c(-c2[nH]c3ccc(C4CCN(C5CCN(C)C5=O)CC4)nc3c2C(C)C)cn2ncnc2c1C (stereo not drawn) [Example 563]
7. Cc1c(-c2[nH]c3ccc(C4CCN(CC#N)CC4)nc3c2C(C)C)cn2ncnc2c1C [Example 557]

a:
1. 8.62
2. 8.96
3. 8.72
4. 7.82
5. 7.96
6. 9.08
7. 9.18

Dear colleague, could you send me pIC50 for each of the items below? Thanks.
1. COc1cc(-c2[nH]c3cc(F)c(C4CCN(CCS(C)(=O)=O)CC4)nc3c2C(C)C)cn2ncnc12 [Example 573]
2. CNC(=O)CN1CCC(c2ccc3[nH]c(-c4cc(C)c(=O)n(C)c4)c(C(C)C)c3n2)CC1 [Example 530]
3. Cc1c(-c2[nH]c3ccc(C4CC(N(C)CCS(C)(=O)=O)C4)nc3c2C(C)C)cn2ncnc2c1C (stereo not drawn) [Example 636]
4. COc1cc(-c2[nH]c3ccc(C4CC(N(C)C(=O)CN(C)C)C4)nc3c2C(C)C)cn2ncnc12 (stereo not drawn) [Example 630]

a:
[9.00, 8.15, 7.34, 8.72]

---

# system: human TLR8 (Homo sapiens (Human), UniProt Q9NR97)
# Sequence (Q9NR97 27-1041): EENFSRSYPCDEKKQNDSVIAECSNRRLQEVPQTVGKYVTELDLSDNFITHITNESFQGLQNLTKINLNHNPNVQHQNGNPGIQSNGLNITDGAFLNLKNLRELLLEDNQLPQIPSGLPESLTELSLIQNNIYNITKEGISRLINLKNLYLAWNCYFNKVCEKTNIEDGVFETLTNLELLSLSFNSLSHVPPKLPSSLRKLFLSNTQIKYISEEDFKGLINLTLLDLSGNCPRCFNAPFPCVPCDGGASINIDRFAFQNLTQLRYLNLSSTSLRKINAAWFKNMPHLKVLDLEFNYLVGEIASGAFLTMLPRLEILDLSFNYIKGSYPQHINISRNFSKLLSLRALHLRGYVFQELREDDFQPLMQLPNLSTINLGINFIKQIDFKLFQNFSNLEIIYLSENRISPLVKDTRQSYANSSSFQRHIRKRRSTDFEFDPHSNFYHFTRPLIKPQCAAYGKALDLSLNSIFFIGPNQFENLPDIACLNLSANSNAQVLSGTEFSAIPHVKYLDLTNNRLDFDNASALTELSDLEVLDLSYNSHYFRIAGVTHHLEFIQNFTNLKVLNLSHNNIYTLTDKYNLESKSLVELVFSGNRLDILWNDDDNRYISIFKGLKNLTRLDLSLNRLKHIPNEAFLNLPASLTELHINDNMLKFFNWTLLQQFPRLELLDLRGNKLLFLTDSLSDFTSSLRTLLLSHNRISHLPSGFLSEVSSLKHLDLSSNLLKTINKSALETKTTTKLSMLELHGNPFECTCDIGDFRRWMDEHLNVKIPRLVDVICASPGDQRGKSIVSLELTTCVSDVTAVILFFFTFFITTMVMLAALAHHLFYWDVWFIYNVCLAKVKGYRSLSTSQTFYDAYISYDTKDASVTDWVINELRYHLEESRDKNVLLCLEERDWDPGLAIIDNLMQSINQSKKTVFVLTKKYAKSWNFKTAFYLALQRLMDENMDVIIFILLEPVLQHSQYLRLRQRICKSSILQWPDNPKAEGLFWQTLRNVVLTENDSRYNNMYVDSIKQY
# assayNotes: TLR8 inhibition reporter assay (HEK-Blue SEAP);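 also: SEAP driven by IFN-β minimal promoter carrying NF-κB and AP-1 sites, compounds dosed 0.05 nM to 50 µM for 22 h, inhibition scaled between agonist-plus-DMSO and reference-inhibitor wells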
# testContext: read-out: TLR8 IC50; HEK-Blue cells overexpressing human TLR8, R848 15.9 μM stimulation, SEAP reporter
measuredProperty: IC50 (nM)
Answers are plain numbers, in nM.

q: Which value of IC50 has been reported for COc1cc(-c2[nH]c3cc(C)c(C4CCC(N5CCC5)CC4)nc3c2C(C)C)cn2ncnc12 (centres unmarked) [Example 326] in the records?
a: 3.7

q: Please report the recorded IC50 for Cc1c(-c2[nH]c3ccc(N4CCC(N(C)C5COC5)CC4)nc3c2C(C)C)cn2ncnc2c1C .
a: 1.3

q: Which IC50 value belongs to CC(C)c1c(-c2cn(C)c3ncccc23)[nH]c2ccc(N3CC(NC4CCOCC4)C3)nc12 [Example 33] ?
a: 1.9

Batch request: IC50 for each of the following molecules.
1. CC(C)c1c(-c2cc(CO)c3ncnn3c2)[nH]c2ccc(C3CCC(NC4COC4)CC3)nc12 (centres unmarked) [Example 220]
2. COc1ccc(-c2[nH]c3ccc(C4CCN(C5CCN(CC(C)C)CC5)CC4)nc3c2C)cc1OC
3. COc1cc(-c2[nH]c3cc(F)c(C4CCC(N5CC6(COC6)C5)CC4)nc3c2C(C)C)cn2ncnc12 (centres unmarked) [Example 344]
4. Cc1c(-c2[nH]c3ccc(N4CCC(NC5CCOCC5)CC4)nc3c2C(C)C)cn2ncnc2c1C

a:
[6.1, 4060, 4.8, 0.62]

q: // lookup IC50 for COc1cc(-c2[nH]c3ccc(N4CCN(C5CCC5)CC4)nc3c2C(C)C)cn2ncnc12
a: 0.99

---

Please go through the items and note down their IC50.
# system: UniProtKB Q9NR97
# assayNotes: TLR8 inhibition reporter assay (HEK-Blue SEAP)
# testContext: read-out: TLR8 IC50; HEK-Blue cells overexpressing human TLR8, SEAP reporter, R848 15.9 μM
One number for each entry, in nM.

A selection of reference data follows.
q: Requested read-out: IC50. Entry: COc1cc(-c2[nH]c3ccc(C4CCN(CC(=O)N(C)C)CC4)nc3c2C(C)C)cn2ncnc12 [Example 537]
a: 7.1

q: Please report the recorded IC50 for Cc1c(-c2[nH]c3ccc(C4CCN(CCS(C)(=O)=O)CC4)nc3c2C(C)C)cn2ncnc2c1C [Example 556] .
a: 1.1

q: What does the data say about its IC50? Entry: COc1cc(-c2[nH]c3ccc(C4CN(CC(N)=O)C4)nc3c2C(C)C)cn2ncnc12 [Example 645]
a: 303

q: Fill blank: measured IC50 of the compound Cc1c(-c2[nH]c3ccc(N4C[C@H]5C[C@@H](C4)N5C(C)C)nc3c2C(C)C)cn2ncnc2c1C [Example 755] is ____.
a: 6.2

q: Endpoint output: IC50 of Cc1c(-c2[nH]c3ccc(C4CC(N(C)CC5(C)COC5)C4)nc3c2C(C)C)cn2ncnc2c1C (stereo not drawn) [Example 626] . Value?
a: 8

Dear colleague, could you send me IC50 for each of the items below? Thanks.
1. CNC(=O)CN(C)C1CCC(c2ccc3[nH]c(-c4cn5ncnc5c(C)c4C)c(C(C)C)c3n2)CC1 (stereo not drawn) [Example 403]
2. Cc1c(-c2[nH]c3ccc(C4CC(N)C4)nc3c2C(C)C)cn2ncnc2c1C (stereo not drawn) [Example 617]
3. COc1cc(-c2[nH]c3ccc(C4CCN(C(=O)CN(C)C)CC4)nc3c2C(C)C)cn2ncnc12 [Example 549]

a:
1: 44; 2: 1320; 3: 18

I would be grateful if you could provide IC50 for each of the following entries.
1. COc1cc(-c2[nH]c3ccc(OC4CCC(N(C)C)CC4)nc3c2C(C)C)cn2ncnc12 (stereo not drawn) [Example 614]
2. Cc1cc(-c2[nH]c3ccc(C4CCN(C5CCOCC5)CC4)nc3c2C(C)C)cn(C)c1=O [Example 527]
3. Cc1c(-c2[nH]c3ccc(C4CCC(N5CCN(C)C(=O)C5)CC4)nc3c2C(C)C)cn2ncnc2c1C (stereo not drawn) [Example 443]
4. Cc1c(-c2[nH]c3ccc(N4C[C@@H](C)N(C(=O)CN5CCCC5)C[C@@H]4C)nc3c2C(C)C)cn2ncnc2c1C [Example 738]
5. COc1cc(-c2[nH]c3ccc(OCC4CCN(C(C)C)CC4)nc3c2C(C)C)cn2ncnc12 [Example 598]

a:
13
3
57
0.89
3.1

Dear reader, for each entry below, please note its IC50.
1. CCN(CC(=O)N(C)C)C1CCC(c2nc3c(C(C)C)c(-c4cn5ncnc5c(C)c4C)[nH]c3cc2F)CC1 (stereo not drawn) [Example 509]
2. Cc1c(-c2[nH]c3ccc(N4[C@@H](C)CN(CCC(N)=O)C[C@@H]4C)nc3c2C(C)C)cn2ncnc2c1C [Example 753]
3. Cc1c(-c2[nH]c3ccc(C4CN(C5CCOCC5)CCO4)nc3c2C(C)C)cn2ncnc2c1C (stereo not drawn) [Example 664]
4. Cc1c(-c2[nH]c3ccc(C4CCC(N(CCO)CC(=O)N(C)C)CC4)nc3c2C(C)C)cn2ncnc2c1C (stereo not drawn) [Example 468]
5. Cc1c(-c2[nH]c3ccc(C4CCC(NC5CC5)CC4)nc3c2C(C)C)cn2ncnc2c1C (stereo not drawn) [Example 426]
6. Cc1c(-c2[nH]c3ccc(C4CNCCO4)nc3c2C(C)C)cn2ncnc2c1C (stereo not drawn) [Example 662]
7. Cc1c(-c2[nH]c3ccc(C4CCC(NCCS(C)(=O)=O)CC4)nc3c2C(C)C)cn2ncnc2c1C (stereo not drawn) [Example 452]

a:
30
12
14
99
2.6
1
4.4

Each compound below has a recorded value; state its IC50.
1. Cc1c(-c2[nH]c3ccc(C4CCC(N(C)CC(=O)N(C)C)CC4)nc3c2C(C)C)cn2ncnc2c1C (stereo not drawn) [Example 408]
2. Cc1c(-c2[nH]c3ccc(C4CCC(N(CC#N)C5COC5)CC4)nc3c2C(C)C)cn2ncnc2c1C (stereo not drawn) [Example 441]
3. Cc1c(-c2[nH]c3ccc(C4CCC(NCCS(N)(=O)=O)CC4)nc3c2C(C)C)cn2ncnc2c1C (stereo not drawn) [Example 447]
4. COc1cc(-c2[nH]c3ccc(C4CCC(NC(=O)CN(C)C)C4)nc3c2C(C)C)cn2ncnc12 (stereo not drawn) [Example 712]
5. Cc1cc2[nH]c(-c3cc(C)c4ncnn4c3)c(C(C)C)c2nc1C1CCN(C2COC2)CC1 [Example 578]
6. Cc1cc(-c2[nH]c3cc(F)c(C4CCN(CC(=O)N(C)C)CC4)nc3c2C(C)C)cn2ncnc12 [Example 580]

a:
1. 43
2. 0.63
3. 2.3
4. 11
5. 287
6. 8.7

# per-item lookup of IC50; items listed below
1. Cc1c(-c2[nH]c3ccc(C4CCC(N(CCO)CCS(C)(=O)=O)CC4)nc3c2C(C)C)cn2ncnc2c1C (stereo not drawn) [Example 461]
2. COc1cc(-c2[nH]c3cc(C)c(C(=O)NC4CCN(C(C)C)CC4)nc3c2C(C)C)cn2ncnc12 [Example 731]
3. Cc1cc(-c2[nH]c3ccc(C4CCN(CC(=O)N(C)C)CC4)nc3c2C(C)C)cn(C)c1=O [Example 529]

a:
1. 1.7
2. 15
3. 12

q: Please look up its IC50: Cc1c(-c2[nH]c3ccc(N4CC5(CN(C)C5)C4)nc3c2C(C)C)cn2ncnc2c1C [Example 741]
a: 6.5
